experiment: ATG_NRF2_ARE_CIS: Attagene CIS-FACTORIAL HepG2 Assay for human Nuclear Factor Erythroid 2 Related Factor 2 (NFR2) response to Antioxidant Response Elements (ARE) (AID 2282992); settings: HepG2 Attagene ARE/NRF2 reporter, transcription factor activity; actives raise or lower the signal
Activity calls are given as the source filed them. How the source made its calls: active means hit-call score of the fitted dose curve at least 0.9, where 1 is the maximum; inactive means score below 0.9.
Write down the outcome that applies. Available outcomes: Yes for active, No for inactive

*Q* # lookup: test call for `CCCCCCCCCCCCCC`
*A* No

*Q* I'd appreciate the recorded outcome for `C/C=C(\C)C(=O)OCC/C=C\CC` from this test.
*A* No

*Q* Identify the outcome logged in this assay for the compound shown: `CCCC(=O)OC`
*A* No

*Q* Each compound tested received a call. Report the one for `CN(C)c1ccc(C(c2ccccc2)c2ccc(N(C)C)cc2)cc1` .
*A* Yes

*Q* Kindly provide the recorded test outcome for the following compound: `NC(N)=Nc1nc(CSCCC(N)=NS(N)(=O)=O)cs1`
*A* No

*Q* Assay result, entry `c1ccc2c(c1)Oc1ccccc1S2` — outcome?
*A* Yes

*Q* What did the test return for O=C1NC(=O)C2CC=CCC12 (stereo not given) ?
*A* No

*Q* What call does the record list for `CCCCn1cc[n+](C)c1` ?
*A* No

*Q* Test call for this compound, please: `CC(=O)Nc1c(I)c(NC(C)=O)c(I)c(C(=O)O)c1I`
*A* No

*Q* Answer briefly: the call reported for `CC(=O)c1nccs1` in this assay.
*A* No

*Q* Hi, do you know how `CC=CC(=O)O` came out in this test?
*A* No

*Q* # outcome recorded in this test, key = `O=C(O)c1nc(Cl)c(Cl)c(Cl)c1Cl`
*A* Yes

*Q* Name the outcome recorded for `CC(C)(C)NC(=O)[C@@H]1CN(Cc2cccnc2)CCN1C[C@@H](O)C[C@@H](Cc1ccccc1)C(=O)N[C@H]1c2ccccc2C[C@H]1O` in the assay.
*A* No

*Q* Status in this test for `CCc1cc(C(N)=S)ccn1` ?
*A* No

*Q* Hello, I am checking results. What call was entered for `O=C(O)c1ccccc1C(=O)O` ?
*A* No

*Q* For this compound, state the assay outcome: `c1ccc(CNc2ncnc3nc[nH]c23)cc1`
*A* No

*Q* Field: outcome | Entry: `Cc1ccnc(N)c1`
*A* Yes

*Q* Give the logged outcome of this assay for the following compound: `Oc1ccc(Oc2ccccc2)cc1`
*A* No

*Q* Test call, this compound: `CCCc1c(OCCCCc2nn[nH]n2)ccc(C(C)=O)c1O`
*A* Yes

*Q* Which outcome was entered for the compound C=CC(C)(CCC=C(C)C)OC(=O)c1ccccc1 (stereo not given) in this test?
*A* Yes

*Q* Just curious, what result did `c1cc[c]([Bi]([c]2ccccc2)[c]2ccccc2)cc1` get here?
*A* Yes

*Q* Outcome? `CC(C)=CCOC(=O)c1ccccc1`
*A* No

*Q* Fill in: this test's call for `COC(=O)c1ccccc1` is ___
*A* No

*Q* Please indicate how the test categorized C=C(C)C(=O)OCC1CCCO1 (stereo not given) .
*A* No

*Q* Called result for `N#CCN(CC#N)CCN(CC#N)CC#N`
*A* No

*Q* Test call for this compound, please: `CCCC(=O)OC/C=C(\C)CCC=C(C)C`
*A* No

*Q* Record request — test call for `O=C1CCCCCCCCCCCCCC1`
*A* Yes

*Q* # outcome recorded in this test, key = `NC(=O)c1ccc([N+](=O)[O-])cc1Cl`
*A* No

*Q* Check the results log: what was the call for `O=C(OCc1ccccc1)c1ccccc1` ?
*A* No

*Q* Assay outcome for `C1=CCC=C1` : what was it?
*A* No

Source listed as PubChem BioAssay (EPA / NIEHS).
